test: physchem; details: octan-1-ol/water, pH 7.4, LogD7.4
Collected logD values appear next to each entry.
Lab note: write the figure by itself, no unit.

Consider the reported logD for these compounds:
COC(=O)N1CCN(c2ccnc(-n3ccnc3)n2)C(CC(=O)NCc2ccc3c(c2)OCO3)C1 (stereo unspecified)    1.88
CC(C)C(NC(=O)Cn1c(-c2ccccc2)ccc(NC=O)c1=O)C(=O)C(F)(F)F (stereo unspecified)    1.84
CCOC(=O)[C@H](Cc1ccc([N+](=O)[O-])cc1)NC(=O)c1ccccc1    2.79
Clc1ccc2[nH]ncc2c1    2.44
CC(=O)NC[C@H]1CN(c2ccc(N3Cc4ccncc4C3)c(F)c2)C(=O)O1    3.02

Shift focus to the following entry.
Give recorded logD. CCCCCC[C@H]1OC(=O)CNC(=O)[C@@H]([C@H](C)O)NC(=O)[C@H](CO)NC(=O)[C@H]([C@H](C)CC)NC(=O)[C@H](CC(C)C)N(C)C(=O)[C@@H]1C
3.2

* * *

experiment: physchem; settings: octan-1-ol/water, pH 7.4, LogD7.4
testReadout: logD
Lab note: write the figure by itself, no unit.

Nc1ccnc(-c2cccnc2)n1    0.44
O=C(c1ccc(Cl)cc1)C1CCN(C(=O)C2CC2)CC1    2.72
Cn1c(C#N)ccc1-c1ccc2c(c1)C(C)(C)OC(=S)N2    3.4
Oc1nc(-c2ccccc2)c(-c2ccccc2)o1    3.42
CS(=O)(=O)n1c2ccccc2c2cc(NC(=O)CCc3ccncc3)ccc21    3.4
O=c1cc(N2CCOCC2)oc2cc(O)ccc12    1

Give recorded logD. Fc1cc2[nH]cnc2cc1Cl
2.35

Give recorded logD. O=S(=O)(Nc1cccc2[nH]ncc12)c1cccs1
1.7

Give recorded logD. CN[C@@H](C)C(=O)N[C@H](C(=O)N[C@H]1CCN(C(=O)c2ccccc2)C1)C1CCCCC1
0.82

Give recorded logD. CC1CN(C(=O)c2nnc3c(-c4ncccn4)cccc3c2N)C1
1.21

Give recorded logD. Cc1cc(C)c2c(N)c(C(=O)NCc3ccccc3)sc2n1
3.41

Give recorded logD. COc1cc(C(=O)NCc2ccc(OCCN(C)C)cc2)cc(OC)c1OC [TRIMETHOBENZAMIDE]
0.74

Give recorded logD. C[C@H]1COCCN1c1nc(N2CCOC[C@@H]2C)c2ccc(-c3cccc(C(=O)NCCO)c3)nc2n1
2.49

Give recorded logD. CC(c1cc2ccccc2s1)N(O)C(N)=O (stereo unspecified)
2.05

Give recorded logD. COc1ccc(CN2CCc3c([nH]c4ccccc34)C2)cc1OC
3.1

Give recorded logD. Cc1ccc(-c2ccc(S(=O)(=O)N3CCC[C@H]3C(=O)N3CC[C@@H](N)C3)cc2F)o1
1.2

* * *

assay: physchem; settings: octan-1-ol/water, pH 7.4, LogD7.4
testReadout: logD
Lab note: write the figure by itself, no unit.

O=C(Cc1ccc(O)cc1)c1ccc(O)cc1O    2.54
COc1ccc(-c2cc(=O)[nH]c(N)n2)cc1    1.52
Cc1cc(NC(=O)c2ccc(Cl)cc2)n(-c2ccccc2)n1    3.25
Cc1ccc2c(c1)c(S(=O)(=O)c1ccc(Cl)cc1)c(C)n2CC(=O)O    0.06
COc1cc(OC)cc(-c2cc3cnc(N)nc3nc2N)c1    2.14

Shift focus to the following entry.
Give recorded logD. Nc1c(C(=O)NC2CC2)nnc2c(-c3ncccn3)cccc12
1.5

* * *

experiment: physchem; settings: octan-1-ol/water, pH 7.4, LogD7.4
Collected logD values appear next to each entry.

Consider the reported logD for these molecules:
O=C1O[C@@H](COc2ccon2)CN1c1ccc(C2=CCOCC2)c(F)c1    2.61
Cc1c(Oc2ccc(S(C)(=O)=O)cc2F)ncnc1OC1CCN(C(=O)OC(C)C)CC1    3.7
N#C[C@@]1(NC(=O)[C@@H](N)Cc2cccs2)C[C@@H]1c1ccccc1    1.3
C[C@@H](NC1=CC(=O)NCC1)c1ccc(Nc2ncc3cc(-c4ccncc4)ccc3n2)cc1    3.02
COc1cc(C(CO)CO)ccc1Nc1ncc(Cl)c(-c2cnc3ccccn23)n1    3.1

Give recorded logD. COc1ccc(C(=O)N2CCC(C(=O)c3ccc(F)cc3)CC2)cc1
2.92

Give recorded logD. COc1cc(Nc2nc3c(cc2F)ncn3[C@@H](CO)c2ccc(F)cn2)n[nH]1
2.18

Give recorded logD. COc1ccc(CCN2CN=C(SCc3ccc(Cl)cc3)NC2)cc1OC
2.41

Give recorded logD. O=C(NCc1ccc(OC(F)(F)F)cc1)C1c2ccccc2C(=O)N1CC1CC(F)(F)C1 (configuration not stated)
3.9

Give recorded logD. Cc1ccc(F)c(Nc2ccnc(Nc3ccc(S(N)(=O)=O)cc3)n2)c1
3.1

Give recorded logD. Oc1ccc(C(c2ccc(O)cc2)C(Cl)(Cl)Cl)cc1
3.86

Give recorded logD. Cc1cccc(S(=O)(=O)NC(=O)N2CCC(N3CCC(Oc4ccc(Cl)c(Cl)c4)CC3)CC2)c1
1.84

Give recorded logD. C[C@H](NC(=O)C1(N)CCN(c2ncnc3[nH]ccc23)CC1)c1ccc(Cl)cc1
2.67

Give recorded logD. O=C(O)[C@H](Cc1ccccc1)N1CCC(CN2CCC(Oc3ccc(CO)c(Cl)c3)CC2)CC1
0.8

Give recorded logD. CC(C)N(CCCNC(=O)Nc1ccc(C(C)(C)C)cc1)C[C@H]1O[C@@H](n2cnc3c(N)ncnc32)[C@H](O)[C@@H]1O
2.2

Give recorded logD. COc1ccc(C(=O)C2CCN(C(=O)c3ccc(F)cc3)CC2)cc1
2.92

Give recorded logD. CCCSc1ncccc1C(=O)N(C)[C@H]1[C@@H]2CC3C[C@H]1C[C@@](O)(C3)C2
2.48

* * *

Collected solubility thermodynamic values appear next to each entry.
test: physchem; conditions: pH 7.4 buffer
Entry rule: numbers only, all in µM.

Consider the reported solubility thermodynamic for these compounds:
O=C(O)c1cc2c(Cl)cccc2n1Cc1ccc(Cl)c(Cl)c1    66.1
CS(=O)(=O)Cc1cc(N2CCOCC2)nc(-c2ccc(NS(C)(=O)=O)cc2)n1    11.2

Give recorded solubility thermodynamic. COc1ccc(Cl)cc1NC(=O)c1cnccn1
12

Give recorded solubility thermodynamic. COc1cc2cc(O)nc(C)c2cc1OC
209

Give recorded solubility thermodynamic. Cc1ccc(CCNC(=O)c2ccc3sc(CO)nc3c2)cc1
16.2

Give recorded solubility thermodynamic. O=C(NCCSCc1c(F)cccc1Cl)Nc1ccccc1
5.1

Give recorded solubility thermodynamic. COc1ccc(OC)c(CNc2[nH]nc3cccc(Oc4ccc(S(C)(=O)=O)cc4)c23)c1
2.2

Give recorded solubility thermodynamic. O=c1[nH][nH]c(=O)c2c1[nH]c1cc(Cl)cc(Cl)c12
57.5

* * *

test: physchem
Collected pKa values appear next to each entry.
Lab note: write the figure by itself, no unit.

Consider the reported pKa for these compounds:
N#Cc1ccc2[nH]c(-c3ccc(F)cc3)c(CCCC(=O)NS(N)(=O)=O)c2c1    5.9
COc1nc(Br)cnc1NS(=O)(=O)c1ccc(Cl)s1    4.1
CCCCc1oc2ccc(NS(C)(=O)=O)cc2c1C(=O)c1ccc(OCCCN(CCCC)CCCC)cc1    7.69

Give recorded pKa. CCOC(=O)N1CCC(c2cc(=O)n(-c3ccccc3)[nH]2)CC1
6.8

* * *

Collected fraction unbound at 5 h values appear next to each entry.
experiment: in vitro; settings: human, plasma, PPB
Lab note: write the figure by itself, no unit.

Consider the reported fraction unbound at 5 h for these compounds:
Cc1cc(C)c(C)c(Cn2ccc3c(/C=N/NC(=O)c4ccc(O)c(C#N)c4)cccc32)c1C    0.04
Cc1cn([C@H]2CCCN([C@@H](CC(C)(C)C)c3ccc(C(=O)O)c(Oc4cccc(Br)c4)c3)C2)c(=O)[nH]c1=O    0.0099
CCNC(=O)c1cc2c(-n3ccc(C(F)(F)F)n3)c(-c3cncc(C(=O)NC)c3)cnc2[nH]1    0.148
Cc1cccc(-c2nc3cc(Cl)ccc3[nH]2)n1    0.0111
CC(C)N1C(=O)[C@H](NC(=O)[C@@H](Cc2ccccc2OC(F)(F)F)NC(=O)OC(C)(C)C)CCc2ccccc21    0.003

Give recorded fraction unbound at 5 h. C[C@@H](C(=O)NCCN1CCCC1)c1ccc(OS(=O)(=O)C(F)(F)F)cc1
0.324

Give recorded fraction unbound at 5 h. CN[C@@H](C)C(=O)N[C@H](C(=O)N[C@H]1CCCCN(Cc2ccccc2)C1)C1CCCCC1
0.197

Give recorded fraction unbound at 5 h. Cc1[nH]c(/C=C2\C(=O)Nc3ccc(F)cc32)c(C)c1C(=O)NCCN(C)C
0.173

Give recorded fraction unbound at 5 h. COc1ccc2ncc(=O)n(CCN3CC[C@@H](NCc4ccc5c(n4)NC(=O)CO5)[C@@H](O)C3)c2c1
0.0532

Give recorded fraction unbound at 5 h. O=C(O)c1ccc(-c2ccc(Cl)c(C(=O)NCC34CC5CC(CC(C5)C3)C4)c2)cc1
0.0077

Give recorded fraction unbound at 5 h. N#Cc1ccc(C(=O)N2CCC3(CC2)N=C(N)c2c(F)ccc(F)c2N3)cc1
0.285

Give recorded fraction unbound at 5 h. COc1cc(OC)c(S(=O)(=O)N2c3ccccc3CCC2C)cc1NC(=O)CSc1ccncc1 (configuration not stated)
0.0293
